Each entry below carries its recorded melting point.

Qu. Given the molecule `Cc1cccc(-c2[nH]c(C(C)C)nc2-c2ccc(F)c(-c3ccc(C)[nH]3)c2)n1` , what is its reported melting point?
Ans. 118 to 121 °C

Qu. Now the molecule `CN(CCCN1C(=O)c2cccc3cc4ccccc4c(c23)C1=O)CCCN1C(=O)c2cccc3cc4ccccc4c(c23)C1=O`
Ans. 194 °C

---
Qu. Given the molecule `Cc1ccc(NC(=O)C2CC2)c(-c2nc(C(F)(F)F)cs2)c1` , what is its reported melting point?
Ans. 155 to 156 °C

Qu. Now the molecule `CC(C)c1nc2ccccn2c(=O)c1-c1ccc(Cl)cc1`
Ans. 98 to 100 °C

* * *

METRIC: melting point

Use the examples below as a reference point.
Qu. Given the compound `CCOC(=O)c1c(N)sc(-c2ccc(OC)cc2)c1C` , what is its reported melting point?
Ans. 79 to 80 °C

Qu. Now the compound `COC(=O)c1cn2c(n1)COc1ccccc1-2`
Ans. 133 to 134 °C

Qu. Now the compound `OC(c1ccc(OC(F)(F)F)cc1)(c1ccc(OC(F)(F)F)cc1)C1CCN(Cc2c[nH]c3cccc(F)c23)CC1`
Ans. 76 to 88 °C

Qu. Now the compound `CCOc1ccc(C(C)=O)cc1C(=O)Nc1c(C)cccc1C(N)=O`
Ans. 214 to 216 °C

Qu. Now the compound `CCC1=CC(=O)c2ccccc2C1=O`
Ans. 87 to 88 °C

---
Qu. Given the compound `COC(=O)c1ccc(S(=O)(=O)N2CC[C@H](OS(C)(=O)=O)C2)n1C` , what is its reported melting point?
Ans. 79 to 81 °C

Qu. Now the compound `Cc1c(CCN(C)C(=O)OC(C)(C)C)c2cc(S(=O)(=O)c3ccc(C(F)(F)F)cc3)ccc2n1C`
Ans. 141 to 144 °C

Qu. Now the compound `CCOC(=O)c1cc2c3n(ccc-2n1)CC(C=O)=N3`
Ans. 82 to 84 °C

Qu. Now the compound `CN1CCC2(CC1)NC(=S)N(c1ccc(C#N)c(C(F)(F)F)c1)C2=O`
Ans. 229 to 230 °C

Qu. Now the compound `Cc1ccc(Cl)nc1N1CCCNC1=C[N+](=O)[O-]`
Ans. 176 to 183 °C

Qu. Now the compound `COc1cc(OC)cc(-c2nnc(-c3cc(OC)cc(OC)c3)o2)c1`
Ans. 167 to 170 °C

Qu. Now the compound CC1(C)NC(=O)CN1C(=O)CNC(=O)CN1CC(O)CC1=O (stereo not given)
Ans. 227 to 229 °C

Qu. Now the compound `Cc1ccc(S(=O)(=O)N2CC[C@@H](O)C2)cc1`
Ans. 108 to 112 °C

Qu. Now the compound OC1C2=C(CCN1CCCCc1c[nH]c3ccccc13)c1ccccc1C2 (stereo not given)
Ans. 205 to 208 °C

Qu. Now the compound COc1ccc2c(c1)c1c(n2Cc2ccccc2)CCCC1C(N)=O (stereo not given)
Ans. 154 to 156 °C

* * *

METRIC: melting point

Qu. Given the compound `CC(=O)OCCCc1c(C)[nH]c(C(=O)OC(C)(C)C)c1C` , what is its reported melting point?
Ans. 73 °C

---
Qu. Given the compound `Cc1ccc2c(NCc3ccc(NC(=O)c4ccc(Cl)cc4)cc3)nc(N3CCCCCC3)nc2c1` , what is its reported melting point?
Ans. 192 to 194 °C

Qu. Now the compound `Cc1cc(SCc2cccc3nn(-c4ccc(C(F)(F)F)cc4)cc23)ccc1OCC(=O)O`
Ans. 105 to 108 °C

Qu. Now the compound `Cc1cc(-c2ccccc2)n2nc(N)nc2n1`
Ans. 246 to 250 °C

Qu. Now the compound `O=C1c2ccccc2C(=O)c2sc(-c3ccc(F)cc3)nc21`
Ans. > 260 °C

Qu. Now the compound `CCNc1nc2c(N)nc3ccccc3c2n1CC(C)C`
Ans. 188 to 190 °C

Qu. Now the compound COc1cc2nc(S(=O)Cc3nccc(N(C)C)c3F)[nH]c2cc1OC (stereo not given)
Ans. 208 to 210 °C

Qu. Now the compound `c1ccc2c(c1)N=C(C1CCCCC1)c1cccc3c1N2CC3`
Ans. 104 to 106 °C

Qu. Now the compound `O=C1OC(=O)c2ccc3c4cccc5cccc(c6ccc1c2c63)c54`
Ans. > 260 °C

Qu. Now the compound `COC1(c2cc(F)cc(CC#COC#CCc3cc(F)cc(C4(OC)CCOCC4)c3)c2)CCOCC1`
Ans. 75 to 77 °C

* * *

Each entry below carries its recorded melting point.

Use the examples below as a reference point.
Qu. Given the molecule C=CCN1CC(C)N(C(c2ccsc2)c2cccc(O)c2)CC1C (stereo not drawn) , what is its reported melting point?
Ans. 140 to 142 °C

Qu. Now the molecule `Cc1cc(Br)ccc1NC(=O)c1cc([N+](=O)[O-])ccc1NC(=O)CF`
Ans. 247 to 249 °C

Next, consider the following molecule.
Qu. Given the molecule `NCc1ccc(N2CCC2)cc1` , what is its reported melting point?
Ans. 58 to 60 °C

* * *

METRIC: melting point

Use the examples below as a reference point.
Qu. Given the molecule `NS(=O)(=O)c1cc(C(=O)O)cc(SCc2ccccc2)c1Oc1ccccc1` , what is its reported melting point?
Ans. 235 to 236 °C

Qu. Now the molecule COCC1(C)Oc2ccc(C#N)cc2C(n2ccccc2=O)C1O (stereo not drawn)
Ans. 210 to 212 °C

Next, consider the following molecule.
Qu. Given the molecule `O=[N+]([O-])c1cccc2c(NCC34CCCN3CCC4)cccc12` , what is its reported melting point?
Ans. 95 to 97 °C

* * *

Each entry below carries its recorded melting point.

Use the examples below as a reference point.
Qu. Given the molecule Cc1c(C)c2c(c(C)c1N)CC(C)(C(=O)N1CCc3c([nH]c4ccccc34)C1)O2 (stereo not drawn) , what is its reported melting point?
Ans. 129 to 133 °C

Qu. Now the molecule CCCCCCCCC1C(=O)NC(=O)N1CCCCCCC(=O)OCC (stereo not drawn)
Ans. 68 to 70 °C

Qu. Now the molecule COc1cccc(NC(=O)N(C)Cc2cccc3c2CN(C2CCC(=O)NC2=O)C3=O)c1 (stereo not drawn)
Ans. 296 to 298 °C

Next, consider the following molecule.
Qu. Given the molecule `COc1cc(OC(C)=O)c2ccccc2c1OC(C)=O` , what is its reported melting point?
Ans. 135 to 136 °C

* * *

Each entry below carries its recorded melting point.

Qu. Given the compound O=C(CCc1ccccc1)N[C@H](Cc1ccc(C(F)(F)F)cc1)[C@@H](O)c1ccc(F)c(F)c1 (racemic) , what is its reported melting point?
Ans. 114 to 115 °C

Qu. Now the compound CCN(CC)CC1CCCCN1CC(=O)N1c2ccccc2NC(=O)c2ccccc21 (stereo unspecified)
Ans. 171 to 172 °C

Qu. Now the compound `CCCCCCCCCCCCCCS(=O)(=O)N[C@H]1CCCNC(=O)C1`
Ans. 100 to 101 °C

Qu. Now the compound `CCn1c(=O)c2c(nc(/C=C/c3cccc(C(C)=O)c3)n2C)n(CC)c1=O`
Ans. 221 to 222 °C

---
Qu. Given the compound `CCC(=O)c1onc2ccccc12` , what is its reported melting point?
Ans. 51 to 53 °C

Qu. Now the compound `N[C@@H](Cc1ccccc1)C(c1ccccc1)c1ccccc1`
Ans. 71 to 72 °C

* * *

Each entry below carries its recorded melting point.

Qu. Given the compound `COC(=O)Cc1cc(OCc2ccc3ccccc3n2)ccc1Nc1ccccc1` , what is its reported melting point?
Ans. 106 to 107 °C

Qu. Now the compound `Cc1nc(Nc2ccc(Cl)cc2)sc1C(=O)c1sc(Nc2ccc(Cl)cc2)nc1C`
Ans. 184 to 186 °C

Qu. Now the compound `O=C(O)c1cc(Oc2ccc(Cl)cc2Cl)c(O)cc1Cl`
Ans. 192 to 196 °C

Qu. Now the compound `COc1ccc(-c2ccc(-c3ccc(OC)cc3)c(-c3ccc(O)cc3)n2)cc1`
Ans. 204 to 205 °C

Qu. Now the compound COc1cc(CCCC2SC(=O)NC2=O)ccc1OCc1coc(-c2ccccc2)n1 (stereo not given)
Ans. 131 to 132 °C

---
Qu. Given the compound `CCCCn1nc2c(N)nc3c(c2c1CCS(=O)(=O)CCC)CCCC3` , what is its reported melting point?
Ans. 173 to 175 °C

Qu. Now the compound `Cn1c(=O)c(-c2c(Cl)cccc2Cl)cc2cnc(S(C)(=O)=O)nc21`
Ans. > 290 °C

Qu. Now the compound `O=c1[nH]c2cc(Cl)c(F)c([N+](=O)[O-])c2[nH]c1=O`
Ans. 308 to 310 °C

Qu. Now the compound `ClCc1cccc(-c2nnn[nH]2)c1`
Ans. 152 to 154 °C

Qu. Now the compound `Cc1nc(C(=O)NC2CC2)c2n1-c1ccc(Cl)cc1C(c1ccccc1F)=NC2`
Ans. 196 to 197 °C

Qu. Now the compound `COC(=O)c1cc(S(C)(=O)=O)c(Nc2ccc(S(F)(F)(F)(F)F)cc2)cc1C`
Ans. 106 to 109 °C

Qu. Now the compound CC(=O)OC(C(=O)O)(C(=O)N(C(C)=O)C(C)=O)c1ccc(Cl)c(C)c1 (stereo not given)
Ans. 169 to 171 °C

Qu. Now the compound `CC(=O)c1ccc(-c2ccc(Cl)cc2)c(N)c1`
Ans. 139 to 140 °C

src = a melting point compilation (Tetko et al.; mined from patent text by program, amines drawn as free bases though some values may be those of a salt)
